molecular target: 5P+VT; conditions: modification not given
assay_endpoint: pKd
// pKd: -log10(molar conc.)

Input NVSGWRLFKKISN [NLpep78] . Output pKd: 7.60
